target: NaV1.3 (Homo sapiens (Human), UniProt Q9NY46); test: Selectivity test for Nav ion channel subtypes: NaV1.3 (HEK293, patch clamp); type: cell-based; conditions: 1 uM; HEK293 cells
Sequence (Q9NY46 whole entry): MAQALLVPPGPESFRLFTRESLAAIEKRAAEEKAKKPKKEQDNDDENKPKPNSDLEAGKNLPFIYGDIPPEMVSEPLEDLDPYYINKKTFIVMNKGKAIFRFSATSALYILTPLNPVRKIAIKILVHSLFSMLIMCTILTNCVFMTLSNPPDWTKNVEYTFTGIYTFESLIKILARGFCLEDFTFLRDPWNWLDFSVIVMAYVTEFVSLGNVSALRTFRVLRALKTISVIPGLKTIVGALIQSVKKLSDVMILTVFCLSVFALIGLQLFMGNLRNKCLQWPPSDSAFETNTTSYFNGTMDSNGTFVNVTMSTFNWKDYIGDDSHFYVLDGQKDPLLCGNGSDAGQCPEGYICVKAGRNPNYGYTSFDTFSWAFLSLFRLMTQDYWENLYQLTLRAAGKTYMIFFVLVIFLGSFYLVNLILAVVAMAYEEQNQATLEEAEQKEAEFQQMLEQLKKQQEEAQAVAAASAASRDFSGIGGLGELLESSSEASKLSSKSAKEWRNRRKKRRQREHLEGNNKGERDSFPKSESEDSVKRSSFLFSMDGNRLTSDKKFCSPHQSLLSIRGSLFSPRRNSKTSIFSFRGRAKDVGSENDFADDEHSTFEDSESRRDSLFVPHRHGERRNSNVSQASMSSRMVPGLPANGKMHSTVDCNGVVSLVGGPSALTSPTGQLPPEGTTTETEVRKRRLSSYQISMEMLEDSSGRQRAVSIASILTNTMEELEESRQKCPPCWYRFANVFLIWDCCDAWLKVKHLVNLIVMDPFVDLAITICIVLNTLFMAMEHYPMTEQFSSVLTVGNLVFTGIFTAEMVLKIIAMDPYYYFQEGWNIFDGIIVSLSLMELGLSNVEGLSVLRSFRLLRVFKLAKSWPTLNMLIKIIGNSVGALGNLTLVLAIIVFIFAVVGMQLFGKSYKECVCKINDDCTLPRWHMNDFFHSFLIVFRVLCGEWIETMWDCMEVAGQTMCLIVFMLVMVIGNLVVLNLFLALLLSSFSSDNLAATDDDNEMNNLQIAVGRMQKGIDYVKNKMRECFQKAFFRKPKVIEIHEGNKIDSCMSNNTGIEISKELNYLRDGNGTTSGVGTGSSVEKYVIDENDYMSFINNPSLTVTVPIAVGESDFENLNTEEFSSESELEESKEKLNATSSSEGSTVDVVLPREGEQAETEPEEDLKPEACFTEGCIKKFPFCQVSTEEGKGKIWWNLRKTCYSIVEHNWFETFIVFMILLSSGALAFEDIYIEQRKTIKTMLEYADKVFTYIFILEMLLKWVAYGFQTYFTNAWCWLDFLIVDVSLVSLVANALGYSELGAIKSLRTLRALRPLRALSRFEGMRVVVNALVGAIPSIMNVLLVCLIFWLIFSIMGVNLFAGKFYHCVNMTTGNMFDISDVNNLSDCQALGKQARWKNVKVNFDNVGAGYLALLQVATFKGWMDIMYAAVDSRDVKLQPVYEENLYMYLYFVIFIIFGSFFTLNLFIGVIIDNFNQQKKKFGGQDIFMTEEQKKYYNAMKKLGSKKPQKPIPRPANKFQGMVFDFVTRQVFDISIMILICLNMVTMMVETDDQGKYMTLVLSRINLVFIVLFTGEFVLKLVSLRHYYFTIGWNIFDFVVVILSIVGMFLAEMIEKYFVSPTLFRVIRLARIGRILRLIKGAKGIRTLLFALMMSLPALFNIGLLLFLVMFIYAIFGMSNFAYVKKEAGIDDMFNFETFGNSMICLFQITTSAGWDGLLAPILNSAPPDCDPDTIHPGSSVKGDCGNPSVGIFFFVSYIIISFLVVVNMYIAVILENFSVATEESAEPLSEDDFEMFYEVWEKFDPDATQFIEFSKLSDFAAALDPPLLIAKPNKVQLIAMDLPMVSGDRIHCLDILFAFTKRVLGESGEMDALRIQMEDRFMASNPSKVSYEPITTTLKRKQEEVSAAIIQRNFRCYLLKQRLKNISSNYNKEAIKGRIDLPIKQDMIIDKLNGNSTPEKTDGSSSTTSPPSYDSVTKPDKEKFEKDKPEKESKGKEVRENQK
recordedEndpoint: Inhibition ratio on Nav1.3 (%)

Here are 2 molecules together with their reported answers.
>>> numericvalue("Cc1cc(F)ccc1Oc1cc(C2CC2)c(C(F)(F)F)cc1C(=O)Nc1ccnc(OC[C@H](O)CO)c1")
4.3
>>> numericvalue("Cc1cc(F)ccc1Oc1cc(C(F)(F)F)c(Cl)cc1C(=O)Nc1ccnc(OC[C@H](O)CO)c1")
4.4

[P] Cc1cc(F)ccc1Oc1cc(C(F)(F)F)c(Cl)cc1C(=O)Nc1cnnc(OC[C@H](O)CO)c1
[Q] Cc1cc(F)ccc1Oc1cc(C(F)(F)F)ccc1C(=O)Nc1ccn(COP(=O)(O)O)c(=O)c1 [VX-150, reference compound]
[R] Cc1cc(F)ccc1Oc1cc(C(F)(F)F)c(Cl)cc1C(=O)Nc1ccc(F)c(OC[C@H](O)CNC(=O)CO)c1
Task item: Please produce an ascending ranking of these molecules based on Inhibition ratio on Nav1.3. // ordering of labels required in reply
Reply: R, Q, P

====

target: human NaV1.8 ion channel (Homo sapiens (Human), UniProt Q9Y5Y9); assay: Compound inhibition activity on human NaV1.8 ion channel in HEK293 cells (whole-cell patch clamp); assay type: cell-based; settings: 100 nm concentration; HEK293 cells, resting protocol; read-out: Inhibition ratio of Nav1.8 (Activity of inhibition)
recordedEndpoint: inhibition at 0.1 µM

// known answers, use as guide
>>> result("Cc1cc(F)ccc1Oc1ccc(C(F)(F)F)cc1C(=O)Nc1ccc(F)c(C(N)CC(=O)O)c1 (stereo not shown)")
"< 20%"
>>> result("Cc1cc(F)ccc1Oc1cc(C2CC2)c(C(F)(F)F)cc1C(=O)Nc1ccc(F)c(C(F)(F)C(=O)NCCO)c1")
"< 20%"
>>> result("Cc1cc(F)ccc1Oc1ccc(C(F)(F)F)cc1C(=O)Nc1ccc(F)c(C(C)N)c1 (stereo not shown)")
"50 to 80%"
>>> result("COCCNC(=O)C(N)c1cc(NC(=O)c2cc(C(F)(F)F)c(C3CC3)cc2Oc2ccc(F)cc2C)ccc1F (stereo not shown)")
"50 to 80%"
>>> result("Cc1cc(F)ccc1Oc1ccc(C(F)(F)F)cc1C(=O)Nc1ccc(F)c(C(C)C(N)=O)c1 (stereo not shown)")
"> 80%"

Task item: Tell me the measured inhibition at 0.1 µM of Cc1cc(F)ccc1Oc1ccc(C(F)(F)F)cc1C(=O)Nc1ccc(F)c(C(O)C2CCNC2=O)c1 (stereo not shown) , please.
Reply: 20 to 50%

Task item: inhibition at 0.1 µM for Cc1cc(F)ccc1Oc1ccc(C(F)(F)F)cc1C(=O)Nc1ccc(F)c(C(O)C(N)=O)c1 (stereo not shown) ?
Reply: 20 to 50%

====

Property: inhibition at 0.1 µM; scope: individual compounds
Biological target: human NaV1.8 ion channel (Homo sapiens (Human))
Experiment: Compound inhibition activity on human NaV1.8 ion channel in HEK293 cells (whole-cell patch clamp)
Format: cell-based
Details: 100 nm concentration; HEK293 cells, resting protocol; read-out: Inhibition ratio of Nav1.8 (Activity of inhibition)
Experimental: Test Case 1: Compound Inhibition Activity on Human NaV1.8 Ion Channel in HEK293 Cells The final concentrations of the test compounds are prepared on the same day and then dissolved in extracellular solution. […] The intracellular solution (mM) contains: Aspartic acid, 140; MgCl2, 2; EGTA 11; HEPES, 10; pH 7.2 (CsOH titration). All test solutions contain 1 μM TTX. The test solution are stored at a concentration of 3 mM in dimethyl sulfoxide (DMSO). […]

Recorded results for 7 compounds are shown here.
>>> result("Cc1cc(F)ccc1Oc1ccc(C(F)(F)F)cc1C(=O)Nc1ccnc(CN)c1")
"50 to 80%"
>>> result("Cc1cc(F)ccc1Oc1cc(C2CC2)c(C(F)(F)F)cc1C(=O)Nc1ccc(F)c(C(N)CO)c1 (centres unmarked)")
"> 80%"
>>> result("Cc1cc(F)ccc1Oc1cc(C2CC2)c(C(F)(F)F)cc1C(=O)Nc1ccnc(C(N)CC(N)=O)c1 (centres unmarked)")
"> 80%"
>>> result("Cc1cc(F)ccc1Oc1cc(C2CC2)c(C(F)(F)F)cc1C(=O)Nc1ccc(F)c(OCCN)c1")
"50 to 80%"
>>> result("COCCC(N)c1cc(NC(=O)c2cc(C(F)(F)F)c(C3CC3)cc2Oc2ccc(F)cc2C)ccc1F (centres unmarked)")
"50 to 80%"
>>> result("CNC(CCO)c1cc(NC(=O)c2cc(C(F)(F)F)c(C3CC3)cc2Oc2ccc(F)cc2C)ccc1F (centres unmarked)")
"> 80%"
>>> result("Cc1cc(F)ccc1Oc1ccc(C(F)(F)F)cc1C(=O)Nc1ccc(F)c(C2NCCNC2=O)c1 (centres unmarked)")
"< 20%"

Task item: Any idea what its inhibition at 0.1 µM is? The compound is Cc1cc(F)ccc1Oc1cc(C2CC2)c(C(F)(F)F)cc1C(=O)Nc1ccc(F)c(C(F)(F)CCO)c1
Reply: 20 to 50%

====

molecular target: UniProt Q9UQD0; experiment: Selectivity test for Nav ion channel subtypes: NaV1.6 (HEK293, patch clamp); format: cell-based; conditions: 1 uM; HEK293 cells
Sequence (Q9UQD0 whole entry): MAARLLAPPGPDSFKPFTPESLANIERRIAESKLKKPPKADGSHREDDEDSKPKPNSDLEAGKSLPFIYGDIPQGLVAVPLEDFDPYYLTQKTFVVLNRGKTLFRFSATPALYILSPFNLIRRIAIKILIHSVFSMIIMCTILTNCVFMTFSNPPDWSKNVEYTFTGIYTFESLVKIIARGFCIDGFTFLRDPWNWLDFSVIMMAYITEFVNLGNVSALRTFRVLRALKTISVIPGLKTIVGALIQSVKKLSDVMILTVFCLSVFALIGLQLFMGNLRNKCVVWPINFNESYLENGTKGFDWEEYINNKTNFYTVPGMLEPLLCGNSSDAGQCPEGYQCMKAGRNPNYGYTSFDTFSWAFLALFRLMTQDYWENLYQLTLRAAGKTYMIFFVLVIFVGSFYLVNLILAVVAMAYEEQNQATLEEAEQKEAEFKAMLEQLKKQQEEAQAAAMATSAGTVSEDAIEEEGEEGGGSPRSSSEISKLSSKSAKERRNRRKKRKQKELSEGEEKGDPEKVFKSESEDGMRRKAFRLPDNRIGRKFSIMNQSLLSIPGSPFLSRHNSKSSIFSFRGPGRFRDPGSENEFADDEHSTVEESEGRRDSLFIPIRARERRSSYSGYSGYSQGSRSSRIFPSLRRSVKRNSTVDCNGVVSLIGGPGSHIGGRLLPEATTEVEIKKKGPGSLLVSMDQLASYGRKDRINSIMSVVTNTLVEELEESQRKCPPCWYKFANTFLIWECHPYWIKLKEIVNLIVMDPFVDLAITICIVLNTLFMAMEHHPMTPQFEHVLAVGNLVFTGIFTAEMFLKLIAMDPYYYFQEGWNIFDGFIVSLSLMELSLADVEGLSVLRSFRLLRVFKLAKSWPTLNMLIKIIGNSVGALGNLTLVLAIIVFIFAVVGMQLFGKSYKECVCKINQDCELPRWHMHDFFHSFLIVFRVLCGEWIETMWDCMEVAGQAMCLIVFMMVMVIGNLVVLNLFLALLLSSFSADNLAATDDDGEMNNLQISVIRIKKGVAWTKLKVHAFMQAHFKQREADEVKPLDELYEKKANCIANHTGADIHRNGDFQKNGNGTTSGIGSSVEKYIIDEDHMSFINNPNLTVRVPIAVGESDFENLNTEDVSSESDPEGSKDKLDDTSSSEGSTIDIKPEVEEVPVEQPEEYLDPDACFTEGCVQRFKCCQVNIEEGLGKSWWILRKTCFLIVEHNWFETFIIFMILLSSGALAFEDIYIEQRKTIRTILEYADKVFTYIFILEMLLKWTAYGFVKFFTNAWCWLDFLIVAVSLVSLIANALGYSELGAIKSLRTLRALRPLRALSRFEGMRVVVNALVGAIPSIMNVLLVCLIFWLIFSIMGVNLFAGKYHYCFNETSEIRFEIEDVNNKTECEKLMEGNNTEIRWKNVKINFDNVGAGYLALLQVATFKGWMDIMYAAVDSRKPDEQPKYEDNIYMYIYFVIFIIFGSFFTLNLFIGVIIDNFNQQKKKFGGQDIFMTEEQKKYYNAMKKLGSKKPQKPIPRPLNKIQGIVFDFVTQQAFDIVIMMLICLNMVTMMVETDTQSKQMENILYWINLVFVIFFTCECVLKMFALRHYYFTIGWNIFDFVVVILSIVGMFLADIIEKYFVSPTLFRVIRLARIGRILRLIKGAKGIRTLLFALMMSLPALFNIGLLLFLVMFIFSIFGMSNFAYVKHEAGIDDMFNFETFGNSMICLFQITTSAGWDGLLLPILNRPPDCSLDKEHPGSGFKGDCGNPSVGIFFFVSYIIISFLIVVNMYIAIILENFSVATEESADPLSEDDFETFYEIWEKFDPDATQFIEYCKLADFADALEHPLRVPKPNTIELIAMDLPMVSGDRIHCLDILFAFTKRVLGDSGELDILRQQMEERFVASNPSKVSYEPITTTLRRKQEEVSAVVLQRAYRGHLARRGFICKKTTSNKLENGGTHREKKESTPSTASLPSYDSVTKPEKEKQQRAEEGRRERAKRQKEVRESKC
recordedEndpoint: Inhibition ratio on Nav1.6 (%)

>>> numericvalue("Cc1cc(F)ccc1Oc1cc(C2CC2)c(C(F)(F)F)cc1C(=O)Nc1ccnc(OC[C@H](O)CO)c1 [Example 104]")
2.8
>>> numericvalue("Cc1cc(F)ccc1Oc1cc(C(F)(F)F)ccc1C(=O)Nc1ccn(COP(=O)(O)O)c(=O)c1 [VX-150, reference compound]")
1.7
>>> numericvalue("Cc1cc(F)ccc1Oc1cc(C(F)(F)F)c(Cl)cc1C(=O)Nc1ccnc(OC[C@H](O)CO)c1 [Example 114]")
8.3

[P] Cc1cc(F)ccc1Oc1cc(C2CC2)c(C(F)(F)F)cc1C(=O)Nc1ccc(F)c(OC[C@H](O)CNC(=O)CO)c1 [Example 119]
[Q] Cc1cc(F)ccc1Oc1cc(C(F)(F)F)c(Cl)cc1C(=O)Nc1cnnc(OC[C@H](O)CO)c1 [Example 116]
Task item: Of P and Q , which one carries the higher reported Inhibition ratio on Nav1.6? Returns: label corresponding to the selected item.
Reply: P

====

Some compounds, each annotated with its measured IC50.
molecular target: hERG ion channels (Homo sapiens (Human)); assay: Inhibition activity test on hERG ion channels in HEK293 cells (cardiac safety, patch clamp); details: human, pH 7.4
Sequence (Q12809 whole entry): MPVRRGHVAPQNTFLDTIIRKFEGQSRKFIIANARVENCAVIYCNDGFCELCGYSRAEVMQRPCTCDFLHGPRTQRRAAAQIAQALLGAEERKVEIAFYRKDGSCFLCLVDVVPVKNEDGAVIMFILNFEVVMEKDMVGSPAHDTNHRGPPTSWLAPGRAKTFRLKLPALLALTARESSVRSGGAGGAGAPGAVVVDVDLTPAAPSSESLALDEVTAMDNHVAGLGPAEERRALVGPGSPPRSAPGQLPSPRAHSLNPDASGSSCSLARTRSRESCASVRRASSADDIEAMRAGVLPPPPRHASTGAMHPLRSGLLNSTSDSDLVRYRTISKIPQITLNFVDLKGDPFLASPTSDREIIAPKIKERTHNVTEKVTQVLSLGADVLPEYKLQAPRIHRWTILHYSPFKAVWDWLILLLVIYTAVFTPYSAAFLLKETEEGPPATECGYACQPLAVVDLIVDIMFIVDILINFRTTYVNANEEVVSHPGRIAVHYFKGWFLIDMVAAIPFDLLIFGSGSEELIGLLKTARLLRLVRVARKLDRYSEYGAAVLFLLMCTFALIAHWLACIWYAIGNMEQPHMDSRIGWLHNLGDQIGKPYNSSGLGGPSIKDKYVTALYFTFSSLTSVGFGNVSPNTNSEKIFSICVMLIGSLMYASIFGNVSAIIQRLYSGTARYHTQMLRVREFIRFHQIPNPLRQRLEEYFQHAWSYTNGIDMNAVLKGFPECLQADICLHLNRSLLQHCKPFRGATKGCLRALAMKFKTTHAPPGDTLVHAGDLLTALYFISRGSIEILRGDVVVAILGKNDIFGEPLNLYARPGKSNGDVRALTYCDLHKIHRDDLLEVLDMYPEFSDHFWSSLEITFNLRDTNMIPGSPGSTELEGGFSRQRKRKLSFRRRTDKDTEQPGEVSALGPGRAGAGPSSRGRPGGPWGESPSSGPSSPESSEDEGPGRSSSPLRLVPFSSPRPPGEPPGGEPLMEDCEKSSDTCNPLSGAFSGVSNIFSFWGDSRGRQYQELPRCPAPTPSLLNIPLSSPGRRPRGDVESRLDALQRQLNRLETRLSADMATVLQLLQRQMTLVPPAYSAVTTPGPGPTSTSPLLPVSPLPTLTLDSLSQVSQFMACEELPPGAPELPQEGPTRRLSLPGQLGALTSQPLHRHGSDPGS
Hi! Could you send only the number? It should be in µM, unit omitted.

Worked examples follow.
>>> numericvalue("Cc1cc(F)ccc1Oc1cc(C2CC2)c(C(F)(F)F)cc1C(=O)Nc1ccc(F)c(OC[C@H](O)CNC(=O)CO)c1")
4.2
>>> numericvalue("Cc1cc(F)ccc1Oc1cc(C(F)(F)F)c(Cl)cc1C(=O)Nc1cnnc(OC[C@H](O)CO)c1")
15.6
>>> numericvalue("Cc1cc(F)ccc1Oc1ccc(C(F)(F)F)cc1C(=O)Nc1ccc(F)c(C(N)CCO)c1 (centres unmarked)")
3

Task item: So what does the record say about IC50 for Cc1cc(F)ccc1Oc1ccc(C(F)(F)F)cc1C(=O)Nc1ccc(F)c(C(N)C(N)=O)c1 (centres unmarked) ?
Reply: 10.5

Task item: Any idea what its IC50 is? The compound is Cc1cc(F)ccc1Oc1cc(C2CC2)c(C(F)(F)F)cc1C(=O)Nc1ccnc(OC[C@H](O)CO)c1
Reply: 3.8

====

Molecular target: NaV1.1 (Homo sapiens (Human), UniProt P35498)
Test: Selectivity test for Nav ion channel subtypes: NaV1.1 (HEK293, patch clamp)
Assay type: cell-based
Conditions: 1 uM; HEK293 cells
Description: Test Case 3: Compound Selectivity Test for Nav Ion Channel Subtypes The aim of this test is to investigate effect of compounds on human Na ion channel cells expressed in steady-state (NaV1.1, NaV1.3, NaV1.4, NaV1.5, NaV1.6, NaV1.7). […] Cells are clamped at −80 mV and then depolarized to −10 mV with a sustained 10 ms square wave to obtain Na ion channel currents (see the FIGURE). […] The strength of the block is calculated after the response is stabilized.
recordedEndpoint: Inhibition ratio on Nav1.1 (%)

>>> numericvalue("Cc1cc(F)ccc1Oc1cc(C(F)(F)F)c(Cl)cc1C(=O)Nc1cnnc(OC[C@H](O)CO)c1")
1.2

[I] Cc1cc(F)ccc1Oc1cc(C(F)(F)F)c(Cl)cc1C(=O)Nc1ccnc(OC[C@H](O)CO)c1
[II] Cc1cc(F)ccc1Oc1cc(C2CC2)c(C(F)(F)F)cc1C(=O)Nc1ccnc(OC[C@H](O)CO)c1
Task item: # return whichever of I and II has the smaller Inhibition ratio on Nav1.1 Answer format: the label of the selected item.
Reply: II
(II: 1.5%, I: 4.8%)
